Target: cyclic AMP phosphodiesterase
Test: Effect on cyclic AMP phosphodiesterase isolated from dog's heart
Conditions: 50% inhibition of substrate hydrolysis; substrate 1.0 uM
value_kind: IC50 (µM)
The response must be a number in µM with no trailing unit.

Bench note: what IC50 did `Cc1cn(-c2ccc3c(c2)COC(=O)N3)cn1` show?
12.8

====

Test: Acute toxicity test in ICR mouse, intravenous
Conditions: in vivo
value_kind: LD50

What LD50 value was documented for this molecule, `Cc1cn(-c2ccc3c(c2)CSC(=O)N3)cn1` ?
≥ 30 mg/kg

====

Test system: blood perfused papillary muscle preparation
Test: Determination of contractile power on blood perfused papillary muscle preparation
Design: species or system dog
Conditions: dose giving 30% increase of developed tension; least-square method
value_kind: ED 30

O=C1Nc2ccc(-n3cnc4ccccc43)cc2CO1 = ED 30 > 1000 ug
O=C1Nc2ccc(-n3ccnc3)cc2CO1 = ED 30 > 1000 ug
Cc1nccn1-c1ccc2c(c1)COC(=O)N2 = ED 30 > 1000 ug

====

System: blood perfused papillary muscle preparation
Experiment: Determination of contractile power on blood perfused papillary muscle preparation
Parameters: species or system dog
Settings: at the ED 30 dose (30% by definition)
value_kind: change of contractivity(%)
State the value, then name its unit.

Cc1cn(-c2cc(C)c3c(c2)COC(=O)N3)cn1 = 30.0%

Which measured change of contractivity(%) value corresponds to `O=C1Nc2ccc(-n3ccnc3)cc2CS1` ?
30%

Give the measured change of contractivity(%) of `Cc1cn(-c2cc(C)c3c(c2)CSC(=O)N3)cn1` .
30.0%

Need change of contractivity(%) of `Cc1cn(-c2ccc3c(c2)CSC(=O)N3)cn1` , thanks.
30%

Value source: patent EP0510235A1
